# test protocol: self-splicing fitness, log relative to wild type (ln ratio); higher = more splicing; Tetrahymena group I intron in knt gene, E. coli kanamycin selection, DiMSum; sequences stand for … in CUCUCU…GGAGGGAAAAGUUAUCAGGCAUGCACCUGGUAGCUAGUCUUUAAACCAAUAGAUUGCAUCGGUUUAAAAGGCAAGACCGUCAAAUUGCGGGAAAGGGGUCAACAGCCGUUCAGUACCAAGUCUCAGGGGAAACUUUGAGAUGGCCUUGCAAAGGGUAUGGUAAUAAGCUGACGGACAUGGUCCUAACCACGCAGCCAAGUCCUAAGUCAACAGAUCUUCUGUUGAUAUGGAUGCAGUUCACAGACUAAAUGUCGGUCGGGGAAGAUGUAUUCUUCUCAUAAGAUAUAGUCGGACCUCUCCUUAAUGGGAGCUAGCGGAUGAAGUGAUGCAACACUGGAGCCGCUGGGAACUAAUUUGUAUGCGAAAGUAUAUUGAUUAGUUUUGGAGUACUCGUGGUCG;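 note: selection with 25 µg/mL kanamycin versus none on LB agar overnight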
# measurement setup: 30 °C
Entries annotated with measured self-splicing fitness (ln)
quantity kind: self-splicing fitness (ln)

[[record]]
sequence_text = "ACGCAGCAAUAUUACGUAUA"
quantity_kind = "self-splicing fitness (ln)"
experimental_result = -2.65

[[record]]
sequence_text = "AGUAAGCAAUAUUACGUAAU"
quantity_kind = "self-splicing fitness (ln)"
experimental_result = -3.15

[[record]]
sequence_text = "CGUUAGCAAUAUUACGGUCU"
quantity_kind = "self-splicing fitness (ln)"
experimental_result = -1.56

[[record]]
sequence_text = "UGUAAGCAAUAUUACGCGUC"
quantity_kind = "self-splicing fitness (ln)"
experimental_result = -3.31

[[record]]
sequence_text = "AUAAAGCAAUAUUACGUUAA"
quantity_kind = "self-splicing fitness (ln)"
experimental_result = -1.62

[[record]]
sequence_text = "CCAAAGCAAUAUUACGUUGC"
quantity_kind = "self-splicing fitness (ln)"
experimental_result = -3.4

[[record]]
sequence_text = "CUUCAGCAAUAUUACGGAUU"
quantity_kind = "self-splicing fitness (ln)"
experimental_result = -2.13

[[record]]
sequence_text = "ACAUAGCAAUAUUACGGUCU"
quantity_kind = "self-splicing fitness (ln)"
experimental_result = -1.46

[[record]]
sequence_text = "AUUAAGCAAUAUUACGCGUG"
quantity_kind = "self-splicing fitness (ln)"
experimental_result = -0.804

[[record]]
sequence_text = "GACCAGCAAUAUUACGCUUA"
quantity_kind = "self-splicing fitness (ln)"
experimental_result = -0.722

[[record]]
sequence_text = "UAAAAGCAAUAUUACGUAGG"
quantity_kind = "self-splicing fitness (ln)"
experimental_result = -2

[[record]]
sequence_text = "GGACAGCAAUAUUACGGCAC"
quantity_kind = "self-splicing fitness (ln)"
experimental_result = -0.469

[[record]]
sequence_text = "GUAUAGCAAUAUUACGGUCC"
quantity_kind = "self-splicing fitness (ln)"
experimental_result = -0.391

[[record]]
sequence_text = "UGACAGCAAUAUUACGUUAC"
quantity_kind = "self-splicing fitness (ln)"
experimental_result = -3.81

[[record]]
sequence_text = "GGAAAGCAAUAUUACGGCGG"
quantity_kind = "self-splicing fitness (ln)"
experimental_result = -2.47

